// IC50 lookup, one value per entry
measurement-target: hK-RasG12C activation by hSOS1 at high GTP concentration (Homo sapiens, UniProt Q07889)
Sequence (Q07889 with tags, fused parts or gaps): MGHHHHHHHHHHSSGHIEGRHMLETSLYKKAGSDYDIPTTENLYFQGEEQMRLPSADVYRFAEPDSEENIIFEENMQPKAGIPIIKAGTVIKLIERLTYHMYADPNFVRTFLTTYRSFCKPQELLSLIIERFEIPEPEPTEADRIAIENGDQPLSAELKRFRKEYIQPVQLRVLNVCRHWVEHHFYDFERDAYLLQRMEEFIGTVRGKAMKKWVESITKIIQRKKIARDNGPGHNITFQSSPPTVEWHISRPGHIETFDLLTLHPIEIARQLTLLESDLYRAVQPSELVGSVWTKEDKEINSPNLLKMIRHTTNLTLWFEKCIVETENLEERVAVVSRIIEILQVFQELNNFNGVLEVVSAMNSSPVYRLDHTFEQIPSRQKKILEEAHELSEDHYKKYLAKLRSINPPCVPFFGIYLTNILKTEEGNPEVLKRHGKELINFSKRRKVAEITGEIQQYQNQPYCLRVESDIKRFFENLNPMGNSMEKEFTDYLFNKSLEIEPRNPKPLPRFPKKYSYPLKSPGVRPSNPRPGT
measure: IC50 (nM)

1) Cc1nc(N[C@H](C)c2cccc(C(F)F)c2F)c2cc(N3CCCC3)ncc2n1 = 320
2) CC(=O)N[C@@H]1CCN(c2cc3c(N[C@H](C)c4cccc(C(F)F)c4F)nc(C)nc3c(C)n2)C1 = 255
3) CCOc1cc2c(N[C@H](C)c3cccc(C(F)F)c3F)nc(C)nc2cn1 = 851
4) CC(=O)N[C@@H]1CCN(c2cc3c(N[C@H](C)c4cccc(C(F)F)c4F)nc(C)nc3cn2)C1 = 187
5) CC(=O)N[C@H]1CCN(c2cc3c(N[C@H](C)c4cccc(C(F)F)c4F)nc(C)nc3cn2)C1 = 197
